- Test system: OVCAR-3 ovarian
- Procedure details: NCI tumour cell line growth inhibition, 48 h
Quantity name: TGI (µM)
Number in µM, nothing else.

query: // lookup TGI for Cc1ccc2nc3c(C)cc(=O)cc-3sc2c1
result: 55.2

query: // lookup TGI for CCOC(=O)C1=C(c2ccccc2)N(C(C)=O)Cc2ccccc21
result: 43.2

query: // lookup TGI for Cc1ccc([N+](=O)[O-])cc1S(=O)(=O)Nc1ccc(C2=NOC(c3ccccc3O)C2)cc1 (stereo not given)
result: 24.1

query: // lookup TGI for O=c1c2cc(S(=O)(=O)O)ccc2nc(COc2ccc(Oc3ccc(Cl)cc3Cl)cc2)n1C(=S)Nc1ccc(Cl)cc1
result: 51.7

query: // lookup TGI for C=C1CC(C)(COc2ccc3c(C)cc(=O)oc3c2)OC1=O (stereo not given)
result: 11

Attribution: PubChem BioAssay (NCI)
